src = PubChem BioAssay AID485317

Overview of recorded inhibition for various molecules
Target System: FAD-linked sulfhydryl oxidase ALR (Homo sapiens)
Assay Procedure: ALR-catalysed DTT oxidation blockers – biochemical, H2O2 detection, HRP-luminol luminescence, single point, primary screen (AID 485317)
Details: purified ALR, stronger effect = higher value, concentration not given here
The whole screen tested about 290,000 compounds, of which about 11,000 (3.8%) were called active. Many of the other results were omitted from the sample, so actives are more common in it than they were.
Parameter: inhibition (%)

- Molecule: "COc1ccc2[nH]c(C(=O)N/N=C/c3cc(OC)c(OC)c(OC)c3)cc2c1"
  Parameter: "inhibition"
  Reading: 90.9
- Molecule: "CC1O[C@H](OC2C(COC3OC(CO)C(O)[C@H](O)C3O)OC(OC3CC[C@]4(C)C(CC[C@@]5(C)[C@@H]4C=C[C@]46OC[C@@]7(CCC(C)(C)C[C@H]74)C(O)C[C@@]56C)C3(C)C)C(O)C2O)C(O)C(O)C1O (stereo not given in full)"
  Parameter: "inhibition"
  Reading: -3.57
- Molecule: "COc1ccc(-c2n[nH]c(C)c2-c2ccc(OC)c(OC)c2)c(O)c1"
  Parameter: "inhibition"
  Reading: 25.6
- Molecule: "COc1cccc(NC(=O)CC(c2ccc(OC(C)C)cc2)c2ccccc2OC)c1 (stereo not given)"
  Parameter: "inhibition"
  Reading: 1.22
- Molecule: "O=C1C=CN2CCCC2CC1 (stereo not given)"
  Parameter: "inhibition"
  Reading: -8.59
- Molecule: "CCOC(=O)c1c(NC(=O)CCC(=O)NCc2ccco2)sc2c1CCCC2"
  Parameter: "inhibition"
  Reading: 3.61
- Molecule: "C=C(C)COc1ccc(-c2n[nH]c(C)c2-c2ccccc2OC)c(O)c1"
  Parameter: "inhibition"
  Reading: -0.153
- Molecule: "COc1ccc(-c2n[nH]c(C)c2-c2ccccc2OC)c(O)c1"
  Parameter: "inhibition"
  Reading: 94.9
- Molecule: "C=CCC(NCCCO)c1cccc(OC)c1OC (stereo not given)"
  Parameter: "inhibition"
  Reading: 99.7
- Molecule: "CCOc1ccc2[nH]c(C(=O)N/N=C/c3cccc(OC)c3OC)cc2c1"
  Parameter: "inhibition"
  Reading: -44.7

###

The following molecules are shown together with reported inhibition values.
Target System: FAD-linked sulfhydryl oxidase ALR (Homo sapiens) (UniProt P55789)
Sequence (P55789 whole entry, looked up): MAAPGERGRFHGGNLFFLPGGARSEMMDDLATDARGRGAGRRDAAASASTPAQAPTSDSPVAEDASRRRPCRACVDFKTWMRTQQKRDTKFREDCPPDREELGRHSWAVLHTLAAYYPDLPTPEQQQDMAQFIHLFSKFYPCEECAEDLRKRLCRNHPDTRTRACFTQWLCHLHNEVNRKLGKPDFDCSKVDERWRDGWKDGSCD
Assay Procedure: ALR-catalysed DTT oxidation blockers – biochemical, H2O2 detection, HRP-luminol luminescence, single point, primary screen (AID 485317)
Details: purified ALR, stronger effect = higher value, concentration not given here
Screen size: about 290,000 compounds; about 11,000 (3.8%) were called active. Many of the other results were omitted from the sample, so actives are more common in it than they were.

- Molecule: "Cc1ccc(-c2nc(C)sc2CC(=O)OCC(=O)Nc2c(F)cccc2F)cc1"
  Target System: "FAD-linked sulfhydryl oxidase ALR (Homo sapiens) (UniProt P55789)"
  inhibition (%): -7.76
- Molecule: "COCCNC(=S)N/N=C/c1c(C)[nH]c2ccccc12"
  Target System: "FAD-linked sulfhydryl oxidase ALR (Homo sapiens) (UniProt P55789)"
  inhibition (%): 98
- Molecule: "COc1cc(OC)cc(C(=O)NCC(=O)N2CCCCCCC2)c1"
  Target System: "FAD-linked sulfhydryl oxidase ALR (Homo sapiens) (UniProt P55789)"
  inhibition (%): -4.06
- Molecule: "Oc1ccc(/C=N/N(Cc2ccccc2)c2ccccc2)cc1"
  Target System: "FAD-linked sulfhydryl oxidase ALR (Homo sapiens) (UniProt P55789)"
  inhibition (%): 99.2
- Molecule: "COc1ccc(CCNC(=O)CN2C(=O)COc3ccc(S(=O)(=O)N4CCCC4)cc32)cc1OC"
  Target System: "FAD-linked sulfhydryl oxidase ALR (Homo sapiens) (UniProt P55789)"
  inhibition (%): -1.92
- Molecule: "COC(=O)[C@]1(CC(C)C)N[C@H](c2ccc(SC3CCCCC3)cc2)[C@@H]2C(=O)N(C)C(=O)[C@@H]21"
  Target System: "FAD-linked sulfhydryl oxidase ALR (Homo sapiens) (UniProt P55789)"
  inhibition (%): -4.22
- Molecule: "O=C(CSc1nc2ccccc2c(=O)n1Cc1ccc(F)cc1)NCC1CCCO1 (centres undefined)"
  Target System: "FAD-linked sulfhydryl oxidase ALR (Homo sapiens) (UniProt P55789)"
  inhibition (%): -7.08
- Molecule: "CC1CCc2sc(C(=O)NCC(c3ccco3)N3CCCCC3)cc2C1 (centres undefined)"
  Target System: "FAD-linked sulfhydryl oxidase ALR (Homo sapiens) (UniProt P55789)"
  inhibition (%): -3.3
- Molecule: "Cc1occc1C(=O)N/N=C/c1ccc(-c2cccc([N+](=O)[O-])c2)o1"
  Target System: "FAD-linked sulfhydryl oxidase ALR (Homo sapiens) (UniProt P55789)"
  inhibition (%): -4.94
- Molecule: "Cc1nc2ccccc2c(=O)n1-c1ccc(F)c(NC(=O)c2cccs2)c1"
  Target System: "FAD-linked sulfhydryl oxidase ALR (Homo sapiens) (UniProt P55789)"
  inhibition (%): -7.89
- Molecule: "Cc1cccc(C)c1Nc1nnc(SCC(=O)NCCCN2CCCC2=O)s1"
  Target System: "FAD-linked sulfhydryl oxidase ALR (Homo sapiens) (UniProt P55789)"
  inhibition (%): 3.02
- Molecule: "COc1ccc(F)cc1C(=O)COC(=O)c1n[nH]c(=O)c2ccccc12"
  Target System: "FAD-linked sulfhydryl oxidase ALR (Homo sapiens) (UniProt P55789)"
  inhibition (%): -1.76
- Molecule: "CN(C)c1ccc(CNC(=O)CN2C(=O)COc3ccc(S(=O)(=O)N4CCCC4)cc32)cc1"
  Target System: "FAD-linked sulfhydryl oxidase ALR (Homo sapiens) (UniProt P55789)"
  inhibition (%): 98.6
- Molecule: "COc1ccccc1C(=O)NC(CCSC)C(=O)N1CCN(C/C=C/c2ccccc2)CC1 (centres undefined)"
  Target System: "FAD-linked sulfhydryl oxidase ALR (Homo sapiens) (UniProt P55789)"
  inhibition (%): -15.9
- Molecule: "COc1ccc2c(c1)CCNC2Cc1ccc(OC)c(O)c1 (centres undefined)"
  Target System: "FAD-linked sulfhydryl oxidase ALR (Homo sapiens) (UniProt P55789)"
  inhibition (%): 22
- Molecule: "Cc1cccc(C(C)C)c1NC(=O)COC(=O)C1CC(=O)N(Cc2ccccc2)C1 (centres undefined)"
  Target System: "FAD-linked sulfhydryl oxidase ALR (Homo sapiens) (UniProt P55789)"
  inhibition (%): -1.43
- Molecule: "Cc1cccc(C(=O)NCCCN(C)CCCNC(=O)c2cccc(C)c2)c1"
  Target System: "FAD-linked sulfhydryl oxidase ALR (Homo sapiens) (UniProt P55789)"
  inhibition (%): -2.47
- Molecule: "CCOc1ccc(-c2nc(C)sc2CC(=O)O)cc1"
  Target System: "FAD-linked sulfhydryl oxidase ALR (Homo sapiens) (UniProt P55789)"
  inhibition (%): -6.6
- Molecule: "N#C/C(=C(/O)Cc1cccc2ccccc12)c1nc2ccccc2s1"
  Target System: "FAD-linked sulfhydryl oxidase ALR (Homo sapiens) (UniProt P55789)"
  inhibition (%): 4.12
- Molecule: "COc1ccccc1N(C)S(=O)(=O)c1ccc(Cl)c(C(=O)Nc2ccncc2)c1"
  Target System: "FAD-linked sulfhydryl oxidase ALR (Homo sapiens) (UniProt P55789)"
  inhibition (%): -13.7
- Molecule: "Cc1cccc(C(=O)NCCCN2CCCC2=O)c1"
  Target System: "FAD-linked sulfhydryl oxidase ALR (Homo sapiens) (UniProt P55789)"
  inhibition (%): -1.37
- Molecule: "CN(CC(=O)NNC(=O)CNC(=O)c1ccccc1Cl)S(=O)(=O)c1ccc(Cl)cc1"
  Target System: "FAD-linked sulfhydryl oxidase ALR (Homo sapiens) (UniProt P55789)"
  inhibition (%): -3.96
- Molecule: "Cc1ccc(-c2nc(C)sc2CC(=O)O)cc1"
  Target System: "FAD-linked sulfhydryl oxidase ALR (Homo sapiens) (UniProt P55789)"
  inhibition (%): 99.3
- Molecule: "c1ccc2c(CNn3cnnc3)cccc2c1"
  Target System: "FAD-linked sulfhydryl oxidase ALR (Homo sapiens) (UniProt P55789)"
  inhibition (%): -6.4
- Molecule: "CCOc1ccc(C(C)=O)cc1COC(=O)CNC(=O)c1cccs1"
  Target System: "FAD-linked sulfhydryl oxidase ALR (Homo sapiens) (UniProt P55789)"
  inhibition (%): -1.95
- Molecule: "CCN(CC(=O)Nc1ccc(OC)cc1)C(=O)c1ccc(Cl)c(S(=O)(=O)N2CCCC2)c1"
  Target System: "FAD-linked sulfhydryl oxidase ALR (Homo sapiens) (UniProt P55789)"
  inhibition (%): -0.437
- Molecule: "COC(=O)c1ccc(SCc2ccccc2)nc1"
  Target System: "FAD-linked sulfhydryl oxidase ALR (Homo sapiens) (UniProt P55789)"
  inhibition (%): -2.47
- Molecule: "CN(C)c1ccc(/C=N/N(Cc2ccccc2)c2ccccc2)cc1"
  Target System: "FAD-linked sulfhydryl oxidase ALR (Homo sapiens) (UniProt P55789)"
  inhibition (%): -4.17
- Molecule: "C[C@H](NC(=O)c1[nH]cnc1C(=O)Nc1nccs1)c1ccccc1"
  Target System: "FAD-linked sulfhydryl oxidase ALR (Homo sapiens) (UniProt P55789)"
  inhibition (%): -11.7
- Molecule: "COc1cc(/C=C2/C(=O)NN(c3cccc(Cl)c3)C2=O)cc(Br)c1O"
  Target System: "FAD-linked sulfhydryl oxidase ALR (Homo sapiens) (UniProt P55789)"
  inhibition (%): 98.2
- Molecule: "N=C(N)SCc1cccc2ccccc12"
  Target System: "FAD-linked sulfhydryl oxidase ALR (Homo sapiens) (UniProt P55789)"
  inhibition (%): 99.3
- Molecule: "CCN(CC(=O)Nc1ccccc1C(F)(F)F)C(=O)CSCc1c(C)noc1C"
  Target System: "FAD-linked sulfhydryl oxidase ALR (Homo sapiens) (UniProt P55789)"
  inhibition (%): 6.19
- Molecule: "C=C1CCC(N(O)c2cc(C)on2)C(=C)CCC2C1CC2(C)C (centres undefined)"
  Target System: "FAD-linked sulfhydryl oxidase ALR (Homo sapiens) (UniProt P55789)"
  inhibition (%): 4.12
- Molecule: "O=c1oc2ccc(C#CC3(O)CCCCC3)cc2cc1-n1cc(-c2ccsc2)nn1"
  Target System: "FAD-linked sulfhydryl oxidase ALR (Homo sapiens) (UniProt P55789)"
  inhibition (%): -6.77
- Molecule: "Cc1[nH]c2ccccc2c1/C=N/NC(=O)CNC(=O)c1ccc2c(c1)OCO2"
  Target System: "FAD-linked sulfhydryl oxidase ALR (Homo sapiens) (UniProt P55789)"
  inhibition (%): -4.62
- Molecule: "COc1ccc(Cl)cc1NC(=O)CN(C)C(=O)c1cc2ccccc2cc1OC"
  Target System: "FAD-linked sulfhydryl oxidase ALR (Homo sapiens) (UniProt P55789)"
  inhibition (%): -4.22
- Molecule: "CCn1nc(C(=O)Nc2ccc(N3CCOCC3)cc2)c2ccccc2c1=O"
  Target System: "FAD-linked sulfhydryl oxidase ALR (Homo sapiens) (UniProt P55789)"
  inhibition (%): -11.2
- Molecule: "C=CC[C@@H](CC(=O)N[C@H](CO)Cc1ccccc1)C(=O)N[C@H](C)COC(=O)[C@@H](CC=C)Cc1ccc(F)cc1"
  Target System: "FAD-linked sulfhydryl oxidase ALR (Homo sapiens) (UniProt P55789)"
  inhibition (%): 2.31
- Molecule: "COc1ccc(N2CCN(C(CNS(=O)(=O)c3ccc(C)cc3)c3ccccc3)CC2)cc1 (centres undefined)"
  Target System: "FAD-linked sulfhydryl oxidase ALR (Homo sapiens) (UniProt P55789)"
  inhibition (%): -0.191
- Molecule: "COc1ccc(C(=O)NC(=S)NC2CCCCC2)cc1"
  Target System: "FAD-linked sulfhydryl oxidase ALR (Homo sapiens) (UniProt P55789)"
  inhibition (%): 3.44
- Molecule: "Cc1sc2ncnc(N3CCC(C(=O)Nc4ccc(F)cc4Cl)CC3)c2c1C"
  Target System: "FAD-linked sulfhydryl oxidase ALR (Homo sapiens) (UniProt P55789)"
  inhibition (%): 1.27
- Molecule: "O=C(COC(=O)c1ccco1)Nc1ccc(Cl)cn1"
  Target System: "FAD-linked sulfhydryl oxidase ALR (Homo sapiens) (UniProt P55789)"
  inhibition (%): -2.69
- Molecule: "Cn1sc(NC(=O)c2ccccc2)nc1=O"
  Target System: "FAD-linked sulfhydryl oxidase ALR (Homo sapiens) (UniProt P55789)"
  inhibition (%): 88.6
- Molecule: "Cc1cc(NC(=O)CSCC(=O)NC(C)c2ccccc2)no1 (centres undefined)"
  Target System: "FAD-linked sulfhydryl oxidase ALR (Homo sapiens) (UniProt P55789)"
  inhibition (%): -11.9
